Test system: HIV-1 (H9IIIB strain)
Experiment: Cell-Based HIV Infection Assay Using a Reporter (MT4-GFP cells)
Settings: Human immunodeficiency virus 1, inflection point (IP) of viral growth inhibition; MT4-GFP cells infected with HIV-1 H9IIIB; 50% normal human serum; mean of at least two independent experiments; read-out: Cell Based IP (50% NHS)
Test Readout: pEC50
Recall that pEC50 is obtained by taking minus log10 of the concentration measured in molar.

Form entry - test system: HIV-1 (H9IIIB strain); read-out: pEC50; compound: CC1(C)C[C@@H]([C@H](c2ccc(Cl)c(F)c2)[C@H](N)C(=O)Nc2cncc(F)c2CC[C@H]2CN[C@@H]3CCCS(=O)(=O)N2C3)CCO1
8.10

Return pEC50 measured with HIV-1 (H9IIIB strain) given this compound: CC[C@H](C)N[C@H](C(=O)N[C@H]1CCC[C@@H]1CC[C@H]1CN[C@@H]2CCCS(=O)(=O)N1C2)[C@@H](c1ccc(Cl)cc1)C1CCOC(C)(C)C1 (stereo partly drawn)
5.89

Recorded pEC50 for CS(=O)(=O)N1CCC([C@H](c2ccc(F)cc2)[C@H](N)C(=O)Nc2cccc(F)c2CC[C@H]2CN[C@@H]3CCCS(=O)(=O)N2C3)CC1 with HIV-1 (H9IIIB strain), please?
7.48

====

System: HIV-1 (H9IIIB strain)
Assay: Cell-Based HIV Infection Assay Using a Reporter (MT4-GFP cells)
Settings: Human immunodeficiency virus 1, inflection point (IP) of viral growth inhibition; MT4-GFP cells infected with HIV-1 H9IIIB; 50% normal human serum; mean of at least two independent experiments; read-out: Cell Based IP (50% NHS)
Experimental: Cell-Based HIV Infection Assay Using a Reporter (“Cell-Based”): MT4-GFP cells contain a stably integrated HIV long terminal repeat promoter directing the transcription of green fluorescent protein (GFP). […] Infected cells were quantified at both 24 and 48 h post incubation using an Acumen eX3 plate reader. Viral reproductive ratio (R0) was determined using the number of infected cells at 48 h divided by the number of infected cells at 24 h. […]
pEC50: −log10 of the molar value.
Would you mind labelling by pEC50? At or over 8 is 1 (yes), under is 0 (no).

Could you please find out whether N[C@H](C(=O)Nc1cncc(F)c1CC[C@H]1CN[C@@H]2CCCS(=O)(=O)N1C2)[C@@H](c1ccc(Cl)cc1)c1cc(F)cc(F)c1 [Example 236] has pEC50 that meets 8 or exceeds it?
1 (yes)

Textbook exercise: given the entry CC1(C)CC([C@H](c2ccc(Cl)cc2)[C@H](N)C(=O)N[C@H]2CCC[C@@H]2CC[C@H]2CN[C@@H]3CCCS(=O)(=O)N2C3)CCO1 (stereo partly drawn) [Example 55] , state whether its pEC50 is greater than or equal to 8.
0 (no)

Can CC(C)Oc1ccc([C@H](c2ccc(Cl)cc2)[C@H](N)C(=O)Nc2cccc(F)c2CCC2CNC3CCCS(=O)(=O)N2C3)cn1 (stereo partly drawn) [Example 11] be said to have pEC50 at or above 8?
1 (yes)

Threshold query (pEC50 >= 8) on C[C@@H]1C[C@H]([C@H](c2ccc(F)cc2)[C@H](N)C(=O)Nc2c(F)ccc(F)c2CC[C@H]2CN[C@@H]3CCCS(=O)(=O)N2C3)C[C@H](C)O1 [Example 146]
0 (no)

Please tell me: is the compound C[C@@H]1CC([C@H](c2ccc(F)cc2)[C@H](N)C(=O)N[C@H]2CCC[C@@H]2CC[C@H]2CN[C@@H]3CCCS(=O)(=O)N2C3)C[C@H](C)O1 (stereo partly drawn) [Example 107] at or over 8 in terms of pEC50?
0 (no)

Does N[C@H](C(=O)Nc1cccc(F)c1CCC1CNC2CCCS(=O)(=O)N1C2)[C@H](c1cncc(F)c1)c1ccc(Cl)c(F)c1 (stereo partly drawn) [Example 44] have a reported pEC50 of at least 8?
1 (yes)

Evaluate COC(=O)N[C@H](C(=O)Nc1c(F)ccc(F)c1CC[C@H]1CN[C@@H]2CCCS(=O)(=O)N1C2)[C@@H](c1ccc(F)cc1)[C@H]1C[C@@H](C)O[C@@H](C)C1 [Example 147] : pEC50 at minimum 8?
0 (no)

Given COC(=O)N[C@H](C(=O)Nc1cccc(F)c1CCC1CNC2CCCS(=O)(=O)N1C2)[C@@H](c1ccc(F)cc1)c1cccc(C2CC2)c1 (stereo partly drawn) [Example 52] , state whether its pEC50 is at least 8.
0 (no)

Quick check: does N[C@H](C(=O)N[C@H]1CCC[C@@H]1CC[C@H]1CN[C@@H]2CCCS(=O)(=O)N1C2)[C@H](c1cncc(F)c1)c1ccc(Cl)c(F)c1 [Example 81] have pEC50 greater than or equal to 8?
0 (no)

Attribution: patent US10138255B2
